Counter-ions that a name gives are not always drawn.
assay readout: melting point

INPUT: Recall and state the measured melting point for `CCOc1ccc(Oc2ccc3nnc(Cl)n3n2)c(-c2ccccc2)c1` .
OUTPUT: 89.7 to 90.8 °C

INPUT: Supply melting point value. Item: `FC(F)(F)c1ccc(-c2cncnc2)c(Oc2nn3c(C(F)(F)F)nnc3c3ccccc23)c1`
OUTPUT: 197 to 200 °C

INPUT: Indicate its recorded melting point; the compound in question is CC(NCCc1ccccc1)c1ccc(Oc2ccc3nnc(Cl)n3n2)c(-c2ccccc2)c1 (stereo not shown)
OUTPUT: 114.3 to 117 °C

INPUT: Supply measured melting point of `Fc1ccc2c(c1)c(Oc1cc(C(F)(F)F)ccc1-c1ccccc1)nn1c(Cl)nnc21` in your reply.
OUTPUT: 213 to 215 °C

INPUT: Could you please provide reported melting point for `Fc1ccc(Oc2ccc3nnc(Cl)n3n2)c(-c2cccc(C(F)(F)F)c2)c1` ? Thanks!
OUTPUT: 94.5 to 96.1 °C

INPUT: Consider the compound `FC(F)(F)Oc1ccc(-c2ccccc2)c(Oc2ccc3nnc(Cl)n3n2)c1` . State its measured melting point.
OUTPUT: 225.4 to 228.2 °C

INPUT: Input FC(F)(F)c1ccc(-c2nccs2)c(Oc2ccc3nnc(Cl)n3n2)c1 (as salt: potassium) , output reported melting point.
OUTPUT: 171 to 173 °C

INPUT: Fill in reported melting point for this entry: `CCC(=O)Nc1ccc(Oc2ccc3nnc(Cl)n3n2)c(-c2ccccc2)c1`
OUTPUT: 163 to 165 °C

Continuing:
INPUT: Assign melting point to the following record: FC(F)(F)c1ccc(-c2cscn2)c(Oc2ccc3nnc(Cl)n3n2)c1 (as salt: potassium)
OUTPUT: 191 to 192 °C

INPUT: Using the record for `CCc1nnc2cc(C)c(Oc3cc(C(F)(F)F)ccc3-c3cccnc3)nn12` , state its measured melting point.
OUTPUT: 174 to 176 °C

###

Recorded melting point by entry

INPUT: Could you please provide reported melting point for Clc1nnc2ccc(Oc3ccc(CN4CCCCC4)cc3-c3ccccc3)nn12 [Cpd.4-156] ? Thanks!
OUTPUT: 70 to 70.4 °C

INPUT: Consider the compound COc1ccc(C(=O)c2ccccc2)c(Oc2ccc3nnc(Cl)n3n2)c1 [Cpd.4-144] and give its recorded melting point.
OUTPUT: 175 to 176 °C

INPUT: Name the recorded melting point of the compound listed here: NC(=O)c1ccc(Oc2ccc3nnc(Cl)n3n2)c(-c2ccccc2)c1 [Cpd.4-70]
OUTPUT: 196.5 to 198.4 °C

###

Reported values of EC50 for individual entries
- tested on: Rev-Erb alpha (Homo sapiens, UniProt P20393)
- Sequence (P20393 284-614 limits assumed): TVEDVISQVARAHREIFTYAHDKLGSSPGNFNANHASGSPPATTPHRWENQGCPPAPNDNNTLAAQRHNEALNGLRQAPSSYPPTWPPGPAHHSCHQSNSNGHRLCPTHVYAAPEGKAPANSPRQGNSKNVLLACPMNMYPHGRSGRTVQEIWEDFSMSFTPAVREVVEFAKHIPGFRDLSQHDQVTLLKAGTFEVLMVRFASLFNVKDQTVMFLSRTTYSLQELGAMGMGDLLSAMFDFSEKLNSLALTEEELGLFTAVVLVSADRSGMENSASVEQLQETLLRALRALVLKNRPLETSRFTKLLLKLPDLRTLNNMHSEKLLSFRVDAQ
- assay protocol: M2H (mammalian two-hybrid) cellular activation assay of Rev-Erb alpha
- Format: cell-based
- condition details: M2H assay, HEK293 cells, Gal4-Rev-Erb alpha / VP16-NCoR, luciferase reporter

INPUT: State, in one line, measured EC50 of Fc1ccc(-c2cccc(Oc3ccc4nnc(Cl)n4n3)c2)cc1 [Cpd.3-9]
OUTPUT: 100 to 1000 nM

Next:
INPUT: Answer with reported EC50 of Fc1cccc(-c2cc(F)ccc2Oc2ccc3nnc(Cl)n3n2)c1 [Cpd.4-120]
OUTPUT: 100 to 1000 nM

INPUT: Please give measured EC50 of the following entry: CC(C)CNc1ccc(-c2ccccc2)c(Oc2ccc3nnc(Cl)n3n2)c1 [Cpd.4-51]
OUTPUT: 100 to 1000 nM

INPUT: Look up and state reported EC50 for FC(F)(F)c1nnc2ccc(Oc3cccc(-c4ccccc4)c3)nn12 [Cpd.3-3]
OUTPUT: 100 to 1000 nM

INPUT: Give the value of EC50 reported for the following: Oc1cccc(-c2ccc(C(F)(F)F)cc2Oc2ccc3nnc(C(F)(F)F)n3n2)c1 [Cpd.4-138]
OUTPUT: 1000 to 6000 nM

INPUT: Input FC(F)(F)c1ccc(-c2cccnc2)c(Oc2nn3c(Cl)nnc3c3ccccc23)c1 [Cpd.5-15] , output reported EC50.
OUTPUT: < 100 nM
